- experimental.target: ERK1 (Homo sapiens, UniProt P27361)
- Sequence (P27361 whole entry): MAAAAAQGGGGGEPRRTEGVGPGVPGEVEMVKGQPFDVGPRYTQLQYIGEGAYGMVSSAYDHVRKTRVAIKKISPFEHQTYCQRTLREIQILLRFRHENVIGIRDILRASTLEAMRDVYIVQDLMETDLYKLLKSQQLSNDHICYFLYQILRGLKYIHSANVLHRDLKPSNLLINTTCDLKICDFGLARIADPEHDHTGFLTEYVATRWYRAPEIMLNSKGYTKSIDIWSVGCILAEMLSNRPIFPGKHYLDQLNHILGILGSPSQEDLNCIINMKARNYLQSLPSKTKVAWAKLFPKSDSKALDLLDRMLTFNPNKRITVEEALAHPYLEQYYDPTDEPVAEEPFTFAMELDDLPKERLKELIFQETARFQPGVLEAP
readout.kind: pIC50
Quick note: pIC50 values are minus log10 of concentrations in mol/L.

Data request, read-out pIC50, for O=C(Nc1ccc2[nH]nc(-c3ccncc3)c2c1)[C@@H]1CCN(CC(=O)N2CCN(c3ccc(-c4ncccn4)cc3)CC2)C1 [SCH772984]
8.08
